Would you kindly list inhibition at 10 µM for each of these compounds?
target: D2 dopaminergic receptor (Homo sapiens); assay: PDSP radioligand binding, D2; conditions: read-out: % inhibition at 10 µM; single concentration 10 µM
Sequence (P14416 whole entry): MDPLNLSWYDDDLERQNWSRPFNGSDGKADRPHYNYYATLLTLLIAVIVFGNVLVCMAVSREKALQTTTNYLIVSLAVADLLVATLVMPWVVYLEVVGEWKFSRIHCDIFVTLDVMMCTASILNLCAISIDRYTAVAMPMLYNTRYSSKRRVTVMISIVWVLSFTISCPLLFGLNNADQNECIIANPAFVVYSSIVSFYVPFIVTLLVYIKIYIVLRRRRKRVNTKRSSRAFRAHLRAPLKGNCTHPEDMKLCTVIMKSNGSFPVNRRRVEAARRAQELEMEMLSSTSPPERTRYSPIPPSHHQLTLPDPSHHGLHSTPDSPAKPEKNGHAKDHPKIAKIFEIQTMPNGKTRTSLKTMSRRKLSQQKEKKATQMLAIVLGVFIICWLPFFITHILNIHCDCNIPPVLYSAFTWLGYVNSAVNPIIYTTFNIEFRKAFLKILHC
Give your result in % as a bare value.

Query: For the compound "O[C@@H]1[C@H](O)[C@@H]2C[C@@H]2[C@H]1n1cnc2c(NC(C3CC3)C3CC3)nc(Cl)nc21" , give its measured inhibition at 10 µM value.
Response: 29

Query: For the compound "Fc1ccc(C#Cc2nc(NCc3cccc(Cl)c3)c3nc[nH]c3n2)cc1F" , give its measured inhibition at 10 µM value.
Response: 0

Query: For the compound "Clc1cccc(CNc2nc(Cl)nc3[nH]cnc23)c1" , give its measured inhibition at 10 µM value.
Response: 0
